- tested-on: T1, Mcl-1, Q07820
- T1 chain: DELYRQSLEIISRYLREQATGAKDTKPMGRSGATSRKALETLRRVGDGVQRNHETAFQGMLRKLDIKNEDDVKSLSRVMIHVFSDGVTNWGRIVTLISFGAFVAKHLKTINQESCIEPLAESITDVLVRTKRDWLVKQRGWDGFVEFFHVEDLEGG
- assay-method-text: peptide SPOT array, c-Myc-tagged receptor at 1 uM or 100 nM, anti-c-Myc-Cy3
Classify as follows. Reported SPOT signal as a fraction of Bim BH3's signal on the same receptor and array greater than or equal to 0.02: Met. Reported SPOT signal as a fraction of Bim BH3's signal on the same receptor and array below: Not met.

- binder: "GTAVAYRGAHLRGRLRAVYNTFRAAP [XXXX]"
  group: "Met"
- binder: "AGYELLIQKFLSLYLDQIDMHRKFVV [ISOC1]"
  group: "Met"
- binder: "VDSIRPKCQELRHLCDQFSAEIARRR [MCF2L]"
  group: "Met"
- binder: "VLSRIEAGRSLKSVLDEFGISKSTFY"
  group: "Met"
- binder: "FYRRRDISNTLIMLADKHAKEIEEES [MTA3]"
  group: "Met"
- binder: "EEIIHKLAMQDRHIGDNIDHRMVRED [PXT1]"
  group: "Met"
- binder: "TETKATFGVHLKIVLDWTERFRDLLL [NOX4]"
  group: "Met"
- binder: "EQAARVAIEHLDKISDSVLVDIKDTE [CCT5]"
  group: "Not met"
- binder: "TRRSMVFARHLREVLDEFRSRHLNST [POFUT2]"
  group: "Met"
- binder: "RLAHEHHCLRDKILGDCYYCVSGLPE [ADCY8]"
  group: "Not met"
- binder: "VLSRIEAGRSLKSVMDEFGISKSTFY"
  group: "Met"
